The reported numbers originate from patent US20260242418A1.

Assay: in vitro
Format: cell-based, human
Details: human, haemolysis % relative to 1% TX-100 at 64 ug/mL PLP-3
quantity: hemolysis at 4 h, 64 ug/mL
# number then unit; no other words

Inquiry: Need hemolysis at 4 h, 64 ug/mL of CC(C)C[C@@H]1NC(=O)[C@H](CCCNC(=N)N)NC(=O)[C@H](CCCNC(=N)N)NC(=O)[C@H](CCCNC(=N)N)NC(=O)[C@H]2CCCN2C(=O)[C@H](CCCNC(=N)N)NC(=O)[C@H](CCCNC(=N)N)NC(=O)[C@H](C(C)C)NC(=O)[C@@H]2CSSC[C@H](NC1=O)C(=O)N[C@@H](Cc1ccccc1)C(=O)N[C@@H](C(C)C)C(=O)N[C@@H](CCCNC(=N)N)C(=O)N1CCC[C@@H]1C(=O)N[C@@H](CCCCN)C(=O)N[C@@H](Cc1ccccc1)C(=O)N[C@@H](C(C)C)C(=O)N[C@@H](C(C)C)C(=O)N2 [PLP-3, cyclo[RRRLCFVRPKFVVCVRRP]] , thanks.
Reply text: 62.6%
